Sourced from the supplement of paper PMC10567573

Please provide measured protein stability index for the entries that follow.
B1: CDS2 (parent)
chain: LIVVTQSHLVIHNLFEGMIWFIVP

variants of: B1; test: protein stability index of a GFP-peptide fusion (GPS, HEK-293T) (PSI 1-6); higher = more stable; conditions: c terminus: a fixed tail appended;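 also: lentivirally expressed fusions sorted by FACS into six bins by GFP to DsRed ratio, PSI derived from sequencing read proportions per bin multiplied by bin number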

Past entries and their recorded results:
E16Y = 2.74
V3F = 3.18
V10W = 2.46

For every item below, please supply its protein stability index.
1. L9Y
2. V23I
3. I19Q
4. H12P
5. V10L
6. I22R
7. W20N

Result ::
1. 2.24
2. 2.9
3. 3.36
4. 1.35
5. 1.96
6. 2.85
7. 3.08

Query :: # protein stability index lookup, item V3Y
Result :: 2.91
